Values from the Human Domainome abundance scans (Beltran et al. 2025)

Measured abundance fitness, listed per entry for reference.
B1: Androgen receptor, residues 557 to 632; numbered along this chain, P10275 (parent)
chain: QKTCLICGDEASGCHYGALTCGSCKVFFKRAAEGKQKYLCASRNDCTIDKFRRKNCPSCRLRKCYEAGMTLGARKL

variants of: B1; assay: abundance fitness (aPCA) (normalised: wild type 0, dead -1); higher = more abundant; growth selection in yeast, the domain comes from the species named; conditions: Homo sapiens

{"columns": ["macromolecule.sequence", "abundance fitness"],
 "data": [
  ["QKTCLICGDEASGCHYGALTCGSCKVFFKRAAEGKQKYLCASRNDCTIDRFRRKNCPSCRLRKCYEAGMTLGARKL [K50R]", -0.068],
  ["QKTCLICGDEASGCHYGALTCGSCKVFFKRAAEGKQKYLCASRNDCTIDKFNRKNCPSCRLRKCYEAGMTLGARKL [R52N]", -0.072],
  ["QKTCLICGFEASGCHYGALTCGSCKVFFKRAAEGKQKYLCASRNDCTIDKFRRKNCPSCRLRKCYEAGMTLGARKL [D9F]", -0.562],
  ["QKTCLICGDEASGCHNGALTCGSCKVFFKRAAEGKQKYLCASRNDCTIDKFRRKNCPSCRLRKCYEAGMTLGARKL [Y16N]", -0.307],
  ["QKTCLICGDEASGCHYGALTCGSCKVFFKRAAEGKQKYLCASRNDCTIDKFRRKNCPSCRLRKCYEAGMTLGKRKL [A73K]", -0.2],
  ["QKTCLICGDEASGCHYGALTCGSCKVFFKRYAEGKQKYLCASRNDCTIDKFRRKNCPSCRLRKCYEAGMTLGARKL [A31Y]", 0.086],
  ["QKTCLICGDEASGCHYGALTCGSCKVFFKRAAEGKQKYLCASRNDCIIDKFRRKNCPSCRLRKCYEAGMTLGARKL [T47I]", -0.03],
  ["QKTCLICGDEASWCHYGALTCGSCKVFFKRAAEGKQKYLCASRNDCTIDKFRRKNCPSCRLRKCYEAGMTLGARKL [G13W]", -0.571],
  ["QKTCLICGDEASGCHYGALTCGSCKVLFKRAAEGKQKYLCASRNDCTIDKFRRKNCPSCRLRKCYEAGMTLGARKL [F27L]", -0.766],
  ["QKTCLICGDEASGCTYGALTCGSCKVFFKRAAEGKQKYLCASRNDCTIDKFRRKNCPSCRLRKCYEAGMTLGARKL [H15T]", 0.045],
  ["QKTCLICGDEASGCHYGALTCGSCKVFFKRAAEGKQKYLCASRNDCTIDKFRRKNCPSCRLRKCYEAGMTHGARKL [L71H]", -0.164],
  ["QKTCLICGDEASGCHYGALTCGSCKVFFWRAAEGKQKYLCASRNDCTIDKFRRKNCPSCRLRKCYEAGMTLGARKL [K29W]", 0.035],
  ["QKTCLICGDEASGCHYGALTCGSCKVFFKRAAEGKQKYLCASRNDCTIDKFRRKNTPSCRLRKCYEAGMTLGARKL [C56T]", -0.562],
  ["QKTCLICGDEASGCHYGALTCGSCKVFFKRAAEGKQKYLCASRNDCTIDKFRRKNCESCRLRKCYEAGMTLGARKL [P57E]", 0.044],
  ["QKTGLICGDEASGCHYGALTCGSCKVFFKRAAEGKQKYLCASRNDCTIDKFRRKNCPSCRLRKCYEAGMTLGARKL [C4G]", -0.61],
  ["QKTCLICGDEASGCHYGALTCGSCKVFFKRAAEGKQKYLCASRNDCTIDKFRRKNCLSCRLRKCYEAGMTLGARKL [P57L]", -0.075],
  ["QKTCLICGDEASGCHYGALTCGSCKVFFKRAAEGKQKYLCTSRNDCTIDKFRRKNCPSCRLRKCYEAGMTLGARKL [A41T]", -0.056],
  ["QKDCLICGDEASGCHYGALTCGSCKVFFKRAAEGKQKYLCASRNDCTIDKFRRKNCPSCRLRKCYEAGMTLGARKL [T3D]", -0.171],
  ["QKTCLICGDEASGCHYGALTCGSCKVFFKVAAEGKQKYLCASRNDCTIDKFRRKNCPSCRLRKCYEAGMTLGARKL [R30V]", -0.066],
  ["QKTCLICGDEASGCHYGALTCGSCKVAFKRAAEGKQKYLCASRNDCTIDKFRRKNCPSCRLRKCYEAGMTLGARKL [F27A]", -0.729],
  ["QKTCLICGDEASGCHYGALTCGSCKVFFKRAAEGKQKYLCASRNDCTIVKFRRKNCPSCRLRKCYEAGMTLGARKL [D49V]", -0.512],
  ["QKTCLICGDEAEGCHYGALTCGSCKVFFKRAAEGKQKYLCASRNDCTIDKFRRKNCPSCRLRKCYEAGMTLGARKL [S12E]", 0.047],
  ["QKTCLICGDEASGCHYGALTCGYCKVFFKRAAEGKQKYLCASRNDCTIDKFRRKNCPSCRLRKCYEAGMTLGARKL [S23Y]", -0.122],
  ["QKTCLICGDEASGCHYGALTCGSCKVFFKRAAEGKQKYDCASRNDCTIDKFRRKNCPSCRLRKCYEAGMTLGARKL [L39D]", -0.068],
  ["QKTCLICGDEASGCHYGALTCGSCKVFFKRAAEGKQKYMCASRNDCTIDKFRRKNCPSCRLRKCYEAGMTLGARKL [L39M]", 0.047],
  ["QKTCLICGDEASGCHYGAGTCGSCKVFFKRAAEGKQKYLCASRNDCTIDKFRRKNCPSCRLRKCYEAGMTLGARKL [L19G]", -0.399],
  ["QKTCLICGDEASGCHYGALTCGSCKVFFKRAAEGKQKYLCASRNDCTIHKFRRKNCPSCRLRKCYEAGMTLGARKL [D49H]", -0.382],
  ["QKTCLICGDEASGCHYGALTCGSCKVFFKRAAEGKQKYLCASRNDCTIDKFRRKNCPSCRLRKCYEAGMTLEARKL [G72E]", 0.126],
  ["QKTCLICGDEASGCHYGALTCGSCKVFFKRAAEGKQKYLCASRNDCTIDKFRRKNCPSCRLRKCYEAGMTFGARKL [L71F]", 0.103],
  ["QKTCLICGDEASGCHYGALTCGSCRVFFKRAAEGKQKYLCASRNDCTIDKFRRKNCPSCRLRKCYEAGMTLGARKL [K25R]", -0.066],
  ["QKTCLICGDEASGCHYGALTCGSCKVFFKRAAEGKQKYLKASRNDCTIDKFRRKNCPSCRLRKCYEAGMTLGARKL [C40K]", -0.632],
  ["QKTCLICGDEASGCHYGALTCGSCKVFFKRAAEGKQKYLCASRNDCTIDKFIRKNCPSCRLRKCYEAGMTLGARKL [R52I]", -0.042],
  ["QKTCLICGDEASLCHYGALTCGSCKVFFKRAAEGKQKYLCASRNDCTIDKFRRKNCPSCRLRKCYEAGMTLGARKL [G13L]", -0.115],
  ["QKTCLICGDEASGCHYGALTCGSCKVFFKRAAEGKQKYLCASRNDCTIDKFRRKWCPSCRLRKCYEAGMTLGARKL [N55W]", -0.421],
  ["QKTCLICGDEASGCHYGALTCGSCKVFFKRAAEGKQKYLCASRNDCTIDKFRRKNCISCRLRKCYEAGMTLGARKL [P57I]", -0.167],
  ["QKTCLICGDEASGCHYGALTCGSCKVFFKKAAEGKQKYLCASRNDCTIDKFRRKNCPSCRLRKCYEAGMTLGARKL [R30K]", 0.103],
  ["QKTCLICGDEASGCHYGALTCGSCKVFFKRAAEGKQKYLCASRNDCTIDKFRRKNCPSCRLRKCYEAGMTLLARKL [G72L]", -0.062],
  ["QKTCLICGDEASGCHYGALTCGSCKVFFKRAAEGKQKYLCASRNDCTLDKFRRKNCPSCRLRKCYEAGMTLGARKL [I48L]", -0.204],
  ["QKTCLICGDEASGCHYGALTCGSCKVFFKRAAEGKQKYLCASRNDCTIDKFRRKNCPSCRLRKCYEAGMTRGARKL [L71R]", -0.25],
  ["QKTCLICGDEASGCHYGALTCGSCKVFFKRAAEGKQKYLCASRNDCTIDKFRRKNGPSCRLRKCYEAGMTLGARKL [C56G]", -1.05],
  ["QKTCLICGDEASGLHYGALTCGSCKVFFKRAAEGKQKYLCASRNDCTIDKFRRKNCPSCRLRKCYEAGMTLGARKL [C14L]", 0],
  ["QKTCLICGDEASGCHYGALTCGSCKVFFKRAAEGKQKYLCASRNKCTIDKFRRKNCPSCRLRKCYEAGMTLGARKL [D45K]", 0.101],
  ["QKTCLICGDEASGCHYGALTCGSCKVFFKAAAEGKQKYLCASRNDCTIDKFRRKNCPSCRLRKCYEAGMTLGARKL [R30A]", -0.094],
  ["QKTCLICGDEASGCHYGALTCGSCKVFFKRAAEGKQKYLCASRIDCTIDKFRRKNCPSCRLRKCYEAGMTLGARKL [N44I]", -0.433],
  ["QKTCLICGDEASGCHYGALTCGSCKVFFKRAAEGKQKYLCASRNDCTIDCFRRKNCPSCRLRKCYEAGMTLGARKL [K50C]", -0.103],
  ["QKTCLICGDEASGCHYGALTWGSCKVFFKRAAEGKQKYLCASRNDCTIDKFRRKNCPSCRLRKCYEAGMTLGARKL [C21W]", -0.694]
]}
